Hey, just so you know, these numbers are from paper PMC7118210.

experiment: Single-dose pharmacokinetics in rats (plasma, UHPLC/MS/MS); format: in vivo, Sprague Dawley rats; conditions: male, Sprague Dawley, rat, plasma, po, 21 mg/kg
Reported endpoint: AUC(0-t) (ng·h/mL)
// return numeric value only (unit: ng·h/mL, not printed)

The molecule listed as C[C@@H]1O[C@@H](O[C@H]2[C@H](Oc3cc(O)c4c(c3)O[C@H](c3ccc(O)cc3)CC4=O)O[C@H](CO)[C@@H](O)[C@@H]2O)[C@H](O)[C@H](O)[C@H]1O shows AUC(0-t) equal to 21.4

###

assay: Single-dose pharmacokinetics in rats (plasma, UHPLC/MS/MS); format: in vivo, Sprague Dawley rats; details: female, Sprague Dawley, rat, plasma, po, 10.5 mg/kg
Reported endpoint: AUC(0-t) (ng·h/mL)
Return type: number; implicit unit ng·h/mL.

The molecule listed as C[C@@H]1O[C@@H](O[C@H]2[C@H](Oc3cc(O)c4c(c3)O[C@H](c3ccc(O)cc3)CC4=O)O[C@H](CO)[C@@H](O)[C@@H]2O)[C@H](O)[C@H](O)[C@H]1O [naringin, Naringin] shows AUC(0-t) equal to 31.9

###

experiment: Single-dose pharmacokinetics in rats (plasma, UHPLC/MS/MS); type: in vivo, Sprague Dawley rats; settings: male, Sprague Dawley, rat, plasma, po, 168 mg/kg
Reported endpoint: AUC(0-inf)

Briefly, AUC(0-inf) measured for C[C@@H]1O[C@@H](O[C@H]2[C@H](Oc3cc(O)c4c(c3)O[C@H](c3ccc(O)cc3)CC4=O)O[C@H](CO)[C@@H](O)[C@@H]2O)[C@H](O)[C@H](O)[C@H]1O [naringin, Naringin] : 149 ng·h/mL

###

Test: Single-dose pharmacokinetics in dogs (plasma, UHPLC/MS/MS)
Type: in vivo, Beagle dogs
Settings: female, Beagle, dog, plasma, po, 3.1 mg/kg
Excerpt: Sixty healthy adult Sprague Dawley rats (180-220 g, half male and female) were purchased from the Guangdong Medical Laboratory Animal Center (Guangzhou, Guangdong, China). Thirty Beagle dogs (10-14 kg, half male and female) were purchased from the […] […] The compounds were detected by multiple reaction monitoring in the negative ion electrospray mode. […] All pharmacokinetic and excretion parameters were expressed as mean ± standard deviation (SD). […]
Reported endpoint: AUC(0-inf)
Give your result as the value with the unit written after it.

Short answer for C[C@@H]1O[C@@H](O[C@H]2[C@H](Oc3cc(O)c4c(c3)O[C@H](c3ccc(O)cc3)CC4=O)O[C@H](CO)[C@@H](O)[C@@H]2O)[C@H](O)[C@H](O)[C@H]1O : AUC(0-inf) was 109 ng·h/mL

###

experiment: Single ascending dose and food-effect pharmacokinetics of naringin tablets in healthy humans; format: in vivo, human; conditions: both sexes, human, plasma, po, 40 mg, naringin 40 mg p.o. single dose
Reported endpoint: half-life (h)
State the answer as a number, implicitly in h.

Please fill in: half-life reported for C[C@@H]1O[C@@H](O[C@H]2[C@H](Oc3cc(O)c4c(c3)O[C@H](c3ccc(O)cc3)CC4=O)O[C@H](CO)[C@@H](O)[C@@H]2O)[C@H](O)[C@H](O)[C@H]1O [naringin, Naringin] = 2.48

###

experiment: Single-dose pharmacokinetics in dogs (plasma, UHPLC/MS/MS); assay type: in vivo, Beagle dogs; details: male, Beagle, dog, plasma, po, 3.1 mg/kg
Reported endpoint: AUC(0-inf)

Per the record, C[C@@H]1O[C@@H](O[C@H]2[C@H](Oc3cc(O)c4c(c3)O[C@H](c3ccc(O)cc3)CC4=O)O[C@H](CO)[C@@H](O)[C@@H]2O)[C@H](O)[C@H](O)[C@H]1O has AUC(0-inf) of 149 ng·h/mL
